Values from patent US11667645B2

Target: Granzyme B (human lymphocytes) (Homo sapiens (Human), UniProt P10144)
Sequence (P10144 21-247): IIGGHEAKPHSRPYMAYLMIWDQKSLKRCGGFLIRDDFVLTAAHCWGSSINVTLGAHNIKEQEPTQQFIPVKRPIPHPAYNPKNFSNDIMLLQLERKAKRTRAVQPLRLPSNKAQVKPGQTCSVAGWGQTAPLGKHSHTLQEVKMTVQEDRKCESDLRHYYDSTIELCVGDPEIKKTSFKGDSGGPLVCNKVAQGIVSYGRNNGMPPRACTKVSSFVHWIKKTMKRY
Assay: human Granzyme B biochemical assay
Conditions: Granzyme B IC50 as repeated in Table 7; read-out: IC50
measure: IC50

Example compounds with recorded IC50:
CC[C@H](C)[C@H](NC(=O)Cc1csc2ccccc12)C(=O)N[C@H]1CCc2cccc3c2N(C1=O)[C@H](C(=O)NCc1c[nH]nn1)C3 ... 1 to 300 nM
CC[C@H](C)[C@H](NC(=O)c1ccccc1)C(=O)N[C@H]1COc2cccc3c2N(C1=O)[C@H](C(=O)NCc1c[nH]nn1)C3 ... 1 to 300 nM

Next:
(Q) Answer with the recorded IC50 of CC[C@H](C)[C@H](NC(C)=O)C(=O)N[C@H]1COc2cccc3c2N(C1=O)[C@H](C(=O)NCc1c[nH]nn1)C3 only.
(A) 1 to 300 nM
